A collection of sequences and their measured apparent KD of K4 kissing-loop reporter
Tested on: K4 kissing-loop RNA reporter;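 further: bound reporter read as fluorescence of individual clusters on recovered sequencing chips by microscopy, with normalized cluster intensities fitted with a binding model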
assayRemarks: apparent KD of K4 kissing-loop reporter; higher = weaker reporter binding
statedConditions: Eterna round: R107; input ligand: arginine 13.2 mM
Lab book: enter the figure in nM, no units written.

Reference set (2 entries):
querySequence	unitName	observed
CGUACGGUUUCUUUCUUUCCGUACGCGUGCCGAGGACCGGUACGGCCGCCACUCGCUACAGCCUAGUGAUGUUAGGCAAUUCUUU	nM	111
UAGUCCUAGUGAUGGUUAUCACGUGGUGGGCGAGGACCGGUACGGCCGCCACUCGACUUUGCAGUGAUGUUGCAAUCCGGACAAU [Exclusion - Tryptophan A (Freestyle 17)]	nM	215

Pending sequence:
Output measured apparent KD of K4 kissing-loop reporter for this item: AGACCACAAAGUGGUCAGUGUUCGCUGCAGCGAGGACCGGUACGGCCGCCACUCGCGAGUGAUGUUCGCGAGAGCAGCGAACACA [Omei KL Tryp A Exc A v6]
83.4

* * *

In this section, each of the sequences is paired with its reported apparent KD of MS2 coat protein.
Tested on: MS2 coat protein
assayRemarks: apparent KD of MS2 coat protein; higher = weaker reporter binding
statedConditions: Eterna round: R107; input ligand: theophylline 20 uM
Could you give me the number in µM? Just the number is fine.

System MS2 coat protein. Read-out apparent KD of MS2 coat protein. Item AGAGCAUUGACGGCCGCCACUCAUGUCACAUGAGGAUCACCCAUGUGAUGGGUGAUAGCCCGGUUGAGGACCGGGUCAAUGCUCA [Omei Tryp SS B v1] . Report value.
0.0253

Recall the reported apparent KD of MS2 coat protein of GGAUGAAACUGAAGGAGCGAGAUCACAAGAAUGGGUCAAACAUGAGGAUCACCCAUGUAAUCUCAGGUAGGUCGCAGUGUCCCUU [Exclusion Arginine B GF 11] on MS2 coat protein and write it down.
0.0805

Give apparent KD of MS2 coat protein only, for AGUUGACAAAAGUCAGCAACAUGAUCCGAAGGAGCGGGCGAAAGCCCAGGUAGGUCGCGGACAUGAGGAUCACCCAUGUCUCCUU [ArgAX 3 #OpenEnded #Sliding] , using MS2 coat protein data.
0.0706

Please indicate recorded apparent KD of MS2 coat protein of GCCGGGCCCGCGGCCGCCACUGAGAGAGUCGUGUGAACAUGAGGAUCACCCAUGUAAUAUAUAUACAGGACCGGGCGGGCCCGGC [4.X] measured with MS2 coat protein.
0.0201

* * *

Test system: MS2 coat protein
assayRemarks: apparent KD of MS2 coat protein; higher = weaker reporter binding
statedConditions: Eterna round: R107; input ligand: arginine 13.2 mM
endpoint: apparent KD of MS2 coat protein (µM)
Hi! Could you send only the number? It should be in µM, unit omitted.

querySequence	endpoint	observed
GCGUACGAUCGGGAUACCAGACAUUGCCGUUAGGGUGAACUUGAGGAUCACCCAAGUUUUGUCCCUUGGCAGCCCGAUCGUACGC [ETB NP+V+V2 #9 Diff Apt, Same Structure]	apparent KD of MS2 coat protein	0.00992
UAAUAAAUAAGUGAUACCAGCGAGAAAACAUGAGGAUCACCCAUGUUCGCCCAUGUUAAGCGCCCUUGGCAGCACAAAUAUAAAA [AstrosExyTheB#1]	apparent KD of MS2 coat protein	0.0256

Entry CUAUUCUGUACGGCCGCCACUUCAACGUGUAAGCUGGUGGUCCACUACAUGAGGAUCACCCAUGUAAGGACCGGGUACGGCGCGG [theeternabot_exclusion_MS2_Trp_B_29] needs its apparent KD of MS2 coat protein filled in; supply it.
0.012

This collection of values is drawn from the supplement of paper PMC9170038.
